Overview of reported PAMPA flux [%] across a group of compounds:
assay type: in vitro ADME
Express your answer in %, writing the number without its unit.

COc1ccc2nc(C)cc(Nc3ccc(O)cc3)c2c1 [Compound 1, reference compound]
12.60
COc1ccc2nc(C)cc(Nc3ccc(Cc4ccc(Nc5ccncc5)cc4)cc3)c2c1
53.60

Q: I would be grateful if you could share the reported PAMPA flux [%] for COc1ccc2nc(C)cc(Nc3ccc(Cc4ccc(Nc5ccncn5)cc4)cc3)c2c1 .
Ans: 41.00

Q: I would be grateful if you could share the reported PAMPA flux [%] for COc1ccc2nc(C)cc(Nc3ccc(Cc4ccc(N)cc4)cc3)c2c1 .
Ans: 29.70

====

target: MtTrxR (Mycobacterium tuberculosis thioredoxin reductase) (Mycobacterium tuberculosis, UniProt P9WHH1); experiment: MtTrxR activity assay according to Lu et al. (DTNB assay); type: biochemical; details: error range = standard deviation
Sequence (P9WHH1 whole entry): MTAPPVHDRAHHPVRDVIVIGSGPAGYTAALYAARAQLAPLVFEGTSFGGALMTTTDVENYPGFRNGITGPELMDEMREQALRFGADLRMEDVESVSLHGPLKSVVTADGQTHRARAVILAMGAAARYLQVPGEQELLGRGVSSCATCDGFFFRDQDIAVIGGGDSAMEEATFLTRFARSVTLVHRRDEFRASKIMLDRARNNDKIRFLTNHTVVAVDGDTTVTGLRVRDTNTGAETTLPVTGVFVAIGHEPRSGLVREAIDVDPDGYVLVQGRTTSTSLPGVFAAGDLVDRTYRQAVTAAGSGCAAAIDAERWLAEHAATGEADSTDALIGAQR
Overview of reported log10(IC50) across a group of compounds:
Please note: log10 values; quantity IC50; unit µM.

The examples below pair each entry with its known result.
COc1ccc2nc(C)cc(Nc3ccc(Cc4ccc(N)cc4)cc3)c2c1
0.26
COc1ccc2nc(C)cc(Nc3ccc(S(=O)(=O)c4ccc(Nc5cc(C(C)(C)C)n[nH]5)cc4)cc3)c2c1
0.96
COc1ccc(Nc2ccc(S(=O)(=O)c3ccc(Nc4cc(C)nc5ccc(OC)cc45)cc3)cc2)cc1
0.28
COc1ccc2nc(C)cc(Nc3ccc(S(=O)(=O)c4ccc(N)cc4)cc3)c2c1
0.72
COC(=O)c1ccc(Nc2ccc(S(=O)(=O)c3ccc(Nc4cc(C)nc5ccc(OC)cc45)cc3)cc2)cc1
0.68
COc1ccc2nc(C)cc(Nc3ccc(S(=O)(=O)c4ccc(NC(C)=O)cc4)cc3)c2c1
0.56
COc1ccc2nc(C)cc(Nc3ccc(C(=O)c4ccc(Nc5ccncc5)cc4)cc3)c2c1
0.02
COc1ccc2nc(C)cc(Nc3ccc(S(=O)(=O)c4ccc(Nc5ccncc5)cc4)cc3)c2c1
-0.60
COc1ccc2nc(C)cc(Nc3ccc(S(=O)(=O)c4ccc(Nc5ccncn5)cc4)cc3)c2c1
-0.29

Q: I would be grateful if you could share the reported log10(IC50) for COc1ccc2nc(C)cc(Nc3ccc(O)cc3)c2c1 [Compound 1, reference compound] .
Ans: 1.06
